Value source: patent US4820834A

target under test: Gastrin receptor (gastric glands) (Cavia porcellus, UniProt H0VZC5)
Construct: The washed guinea pig gastric glands prepared as above were resuspended; from tissue; host or cells: guinea pig gastric mucosal glands (male Hartley)
Sequence (H0VZC5 1-426): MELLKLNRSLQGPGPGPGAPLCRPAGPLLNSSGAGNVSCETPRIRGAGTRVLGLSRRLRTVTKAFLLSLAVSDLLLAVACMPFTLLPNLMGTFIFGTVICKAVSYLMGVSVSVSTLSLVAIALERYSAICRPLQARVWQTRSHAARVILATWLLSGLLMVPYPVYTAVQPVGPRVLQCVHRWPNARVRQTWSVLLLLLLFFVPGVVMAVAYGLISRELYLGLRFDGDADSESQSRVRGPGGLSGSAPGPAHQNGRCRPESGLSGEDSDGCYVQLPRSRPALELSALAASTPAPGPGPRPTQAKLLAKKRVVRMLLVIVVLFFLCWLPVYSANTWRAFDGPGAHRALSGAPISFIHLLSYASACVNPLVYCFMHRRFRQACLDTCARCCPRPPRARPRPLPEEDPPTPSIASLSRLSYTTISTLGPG
assay: Gastrin Receptor Binding in Guinea Pig Gastric Glands
Set-up: species or system guinea pig (male Hartley)
conditions used: ^125 I-gastrin, 25° C., 30 minutes, read-out: IC50 ^125 I-Gastrin Gastric Glands
pIC50: −log10 of the molar value.
If the reported pIC50 equals or exceeds 6, assign condition met. If not, assign condition not met.

See these solved cases before continuing.
{"molecule": "CN1C(=O)[C@@H](NC(=O)c2ccc(C(F)(F)F)cc2)N=C(c2ccccc2F)c2ccccc21 [Example 219]", "category": "condition met"}
{"molecule": "CN1C(=O)[C@@H](NC(=O)c2cc3ccccc3[nH]2)N=C(c2ccccc2F)c2ccccc21 [Example 88]", "category": "condition met"}
{"molecule": "CN1C(=O)[C@@H](NC(=O)c2cccc(Br)c2)N=C(c2ccccc2F)c2ccccc21 [Example 154]", "category": "condition met"}

Here's the next entry for you.
Item CN1C(=O)[C@H](NC(=O)c2ccccc2I)N=C(c2ccccc2F)c2ccccc21 [Example 169] with pIC50 of 6 or above?
condition not met

---

# IC50 values compiled below
target under test: Gastrin receptor (gastric glands) (Cavia porcellus, UniProt H0VZC5)
Construct: The washed guinea pig gastric glands prepared as above were resuspended; from tissue; host or cells: guinea pig gastric mucosal glands (male Hartley)
Sequence (H0VZC5 1-426): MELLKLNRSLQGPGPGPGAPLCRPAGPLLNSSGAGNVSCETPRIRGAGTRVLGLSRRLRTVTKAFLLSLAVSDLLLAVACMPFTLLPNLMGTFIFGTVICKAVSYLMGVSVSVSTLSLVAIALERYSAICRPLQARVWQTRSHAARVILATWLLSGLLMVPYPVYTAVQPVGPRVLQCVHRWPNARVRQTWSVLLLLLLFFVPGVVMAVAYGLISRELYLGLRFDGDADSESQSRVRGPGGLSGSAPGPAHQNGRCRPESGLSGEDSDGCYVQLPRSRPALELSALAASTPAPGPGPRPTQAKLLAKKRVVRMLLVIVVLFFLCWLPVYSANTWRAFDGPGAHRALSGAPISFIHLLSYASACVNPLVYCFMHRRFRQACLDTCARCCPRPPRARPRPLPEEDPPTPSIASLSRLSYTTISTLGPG
assay: Gastrin Receptor Binding in Guinea Pig Gastric Glands
Set-up: species or system guinea pig (male Hartley)
conditions used: read-out: IC50 ^125 I-Gastrin Gastric Glands, 25° C., 30 minutes

{"molecule": "CN1C(=O)[C@@H](Cc2cn(C(=O)c3ccc(Cl)cc3)c3ccccc23)N=C(c2ccccc2F)c2ccccc21", "target under test": "Gastrin receptor (gastric glands) (Cavia porcellus, UniProt H0VZC5)", "IC50": "> 1000 µM"}
{"molecule": "O=C(NCC1CNc2ccccc2C(c2ccccc2F)=N1)c1cc2ccccc2[nH]1 (racemic)", "target under test": "Gastrin receptor (gastric glands) (Cavia porcellus, UniProt H0VZC5)", "IC50": "22 µM"}
{"molecule": "O=C(O)CCN1C(=O)[C@@H](Cc2c[nH]c3ccccc23)N=C(c2ccccc2F)c2ccccc21", "target under test": "Gastrin receptor (gastric glands) (Cavia porcellus, UniProt H0VZC5)", "IC50": "5.8 µM"}
{"molecule": "O=C(NC1N=C(c2ccccc2F)c2ccccc2NC1=O)c1cc2ccccc2o1 (racemic)", "target under test": "Gastrin receptor (gastric glands) (Cavia porcellus, UniProt H0VZC5)", "IC50": "11 µM"}

// below: IC50 requested for another molecule
Please give the measured IC50 for this molecule: "O=C(O)CN1C(=O)[C@@H](Cc2c[nH]c3ccccc23)N=C(c2ccccc2F)c2ccccc21"
5 µM
